target: T1, human ACVR2A (human, UniProt P27037 20-135, limits assumed); assay: ELISA; also: test concentration or dose not given here
T1 construct: coated antigen of the initial ELISA; also called activin receptor, type II A
T1 sequence (P27037 20-135 limits assumed): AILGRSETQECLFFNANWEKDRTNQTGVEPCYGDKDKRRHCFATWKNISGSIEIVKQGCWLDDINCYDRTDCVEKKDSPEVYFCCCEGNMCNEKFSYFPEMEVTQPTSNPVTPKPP
ASSAY_METRIC: optical density (OD)
Numeric only. Scale: OD

The examples below pair each entry with its known result.
BINDER	UNIT_TEXT	optical density
375_A01 (antibody, V domains shown, Group III) VH: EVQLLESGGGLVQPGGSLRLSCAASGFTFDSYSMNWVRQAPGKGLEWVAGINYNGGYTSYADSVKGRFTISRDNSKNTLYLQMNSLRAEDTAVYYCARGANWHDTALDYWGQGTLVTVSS VL: DIQMTQSPSSLSASVGDRVTITCRASQSILSYLNWYQQKPGKAPKLVIYAATSRASGVPSRFSGSGSGTDFTLTISSLQPEDFATYYCQQSYNTPLTFGGGTKVEIK	OD	3.28
373_D12 (antibody, V domains shown, Group III) VH: EVQLLESGGGLVQPGGSLRLSCAASGFTFDSYSMNWVRQAPGKGLEWVSSINYNSGYKGYADSVKGRFTISRDNSKNTLYLQMNSLRAEDTAVYYCARGANWHDTHLDYWGQGTLVTVSS VL: DIQMTQSPSSLSASVGDRVTITCRASQSILSYVNWYQQKPGKAPKLLIYAATSRASGVPSRFSGSGSGTDFTLTISSLQPEDFATYYCQQSYSLPLTFGGGTKVEIK	OD	3.4
374_A09 (antibody, V domains shown, Group III) VH: EVQLLESGGGLVQPGGSLRLSCAASGFTFSSYSMNWVRQAPGKGLEWVSSINYNGGYKGYADSVKGRFTISRDNSKNTLYLQMNSLRAEDTAVYYCARGANWHDTHLDYWGQGTLVTVSS VL: DIQMTQSPSSLSASVGDRVTITCRASQSILTYVNWYQQKPGKAPKLLIYAATSLASGVPSRFSGSGSGTDFTLTISSLQPEDFATYYCQQSYDSPLTFGGGTKVEIK	OD	3.58
368_C08 (antibody, V domains shown, Group III) VH: EVQLLESGGGLVQPGGSLRLSCAASGFTFSDYSMNWVRQAPGKGLEWVSGINYNGGYTSYADSVKGRFTISRDNSKNTLYLQMNSLRAEDTAVYYCARGANWHDTHLDYWGQGTLVTVSS VL: DIQMTQSPSSLSASVGDRVTITCRASQSILTYVNWYQQKPGKAPKLLIYAASSLQSGVPSRFSGSGSGTDFTLTISSLQPEDFATYYCQQSYSTPLTFGGGTKVEIK	OD	2.26

What value of optical density has been recorded for this entry: 374_F06 (antibody, V domains shown, Group III) VH: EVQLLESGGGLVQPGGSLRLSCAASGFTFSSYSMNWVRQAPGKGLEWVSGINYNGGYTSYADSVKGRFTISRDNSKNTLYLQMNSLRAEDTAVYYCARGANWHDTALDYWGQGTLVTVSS VL: DIQMTQSPSSLSASVGDRVTITCRASQSIISYVNWYQQKPGKAPKLVIYAATSLHSGVPSRFSGSGSGTDFTLTISSLQPEDFATYYCQQSYSTPLTFGGGTKVEIK
3.72
